src = patent US11351268B2

Target: Klotho β (KLB) (Homo sapiens)
Construct: expressed in transfected cells; host or cells: HEK 293T (ATCC), pooled Zeocin-selected cells stably expressing hKLB from pcDNA3.1(+)
Sequence (Q86Z14 1-1044): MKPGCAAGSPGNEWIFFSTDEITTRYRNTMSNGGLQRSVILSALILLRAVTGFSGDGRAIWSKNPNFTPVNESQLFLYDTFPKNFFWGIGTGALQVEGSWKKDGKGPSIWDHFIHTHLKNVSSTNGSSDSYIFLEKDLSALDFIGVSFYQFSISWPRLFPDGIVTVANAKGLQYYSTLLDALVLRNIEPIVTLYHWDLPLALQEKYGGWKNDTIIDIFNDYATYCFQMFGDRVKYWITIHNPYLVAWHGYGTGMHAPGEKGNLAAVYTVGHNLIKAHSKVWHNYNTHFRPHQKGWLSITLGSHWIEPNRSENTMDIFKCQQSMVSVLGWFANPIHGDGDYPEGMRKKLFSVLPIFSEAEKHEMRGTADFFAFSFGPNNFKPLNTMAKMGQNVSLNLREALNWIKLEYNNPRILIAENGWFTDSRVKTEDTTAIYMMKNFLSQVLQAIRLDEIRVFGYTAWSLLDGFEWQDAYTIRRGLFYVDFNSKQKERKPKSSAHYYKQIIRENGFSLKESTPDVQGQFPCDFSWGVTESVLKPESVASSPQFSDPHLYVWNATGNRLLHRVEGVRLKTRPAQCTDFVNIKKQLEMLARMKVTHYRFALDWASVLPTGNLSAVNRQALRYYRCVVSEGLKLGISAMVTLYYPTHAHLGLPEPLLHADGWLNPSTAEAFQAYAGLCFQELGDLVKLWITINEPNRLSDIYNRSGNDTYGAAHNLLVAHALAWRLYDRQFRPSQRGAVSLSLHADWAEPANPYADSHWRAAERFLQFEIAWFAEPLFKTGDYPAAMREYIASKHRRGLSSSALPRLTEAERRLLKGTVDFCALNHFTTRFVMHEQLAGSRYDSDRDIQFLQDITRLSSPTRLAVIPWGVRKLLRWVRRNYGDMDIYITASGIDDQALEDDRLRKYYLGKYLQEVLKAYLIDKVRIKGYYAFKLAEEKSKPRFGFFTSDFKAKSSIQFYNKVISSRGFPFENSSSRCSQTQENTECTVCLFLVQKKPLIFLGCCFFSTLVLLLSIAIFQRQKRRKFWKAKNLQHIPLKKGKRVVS
Assay: cell-based
Format: cell-based
Details: Table 2(A), FGF19 169-194 alanine mutants, ≥95% maximal activity
No end group written: not given here.

- substance: "PLETDSMDPFGLVTGLEAVRSPSFEK-NH2 (C-terminus assumed) [FGF19 WT, reference compound]"
  units: "nM"
  IC50: 270
